System: glucosyltransferase
Test: Inhibition of water-insoluble glucan formation by crude glucosyltransferase (14C-sucrose, scintillation counting)
Type: biochemical, Streptococcus mutans OMZ 176
Details: Water-insoluble glucan formation vs control; sample concentration 10.0 mM; 60 minutes at 37°C, pH 6.8
Param threshold (60%) applies to Inhibition (%); output fulfilled when value >= threshold, not fulfilled when value < threshold.

Record excerpt, results attached:
>>> category("O=C(O[C@@H]1Cc2c(O)cc(O)cc2O[C@@H]1c1cc(O)c(O)c2c(=O)c(O)cc([C@H]3Oc4cc(O)cc(O)c4C[C@H]3O)cc12)c1cc(O)c(O)c(O)c1 [Theaflavin monogallate B]")
"fulfilled"
>>> category("O=C(O[C@@H]1Cc2c(O)cc(O)cc2O[C@H]1c1cc(O)c(O)c(O)c1)c1cc(O)c(O)c(O)c1 [(-)-Gallocatechin gallate]")
"fulfilled"
>>> category("O=C(O[C@@H]1Cc2c(O)cc(O)cc2O[C@@H]1c1cc(O)c(=O)c2c(O)c(O)cc([C@H]3Oc4cc(O)cc(O)c4C[C@H]3OC(=O)c3cc(O)c(O)c(O)c3)c2c1)c1cc(O)c(O)c(O)c1 [Theaflavin digallate]")
"fulfilled"
>>> category("Oc1cc(O)c2c(c1)O[C@H](c1cc(O)c(O)c(O)c1)[C@@H](O)C2 [(+)-Gallocatechin]")
"not fulfilled"

IN: Inhibition (%) >= 60% for Oc1cc(O)c2c(c1)O[C@@H](c1ccc(O)c(O)c1)[C@@H](O)C2 [(+)-Epicatechin] ?
OUT: not fulfilled

IN: What about this compound? Oc1cc(O)c2c(c1)O[C@H](c1ccc(O)c(O)c1)[C@@H](O)C2 [(+)-Catechin]
OUT: fulfilled

IN: Would you kindly repeat that for O=c1c(O)cc([C@H]2Oc3cc(O)cc(O)c3C[C@H]2O)cc2c([C@H]3Oc4cc(O)cc(O)c4C[C@H]3O)cc(O)c(O)c12 [Free theaflavin] ?
OUT: fulfilled

IN: Same for O=C(O[C@@H]1Cc2c(O)cc(O)cc2O[C@@H]1c1cc(=O)c(O)c2c(O)c(O)cc([C@H]3Oc4cc(O)cc(O)c4C[C@H]3O)c2c1)c1cc(O)c(O)c(O)c1 [Theaflavin monogallate A]
OUT: fulfilled

---

For each entry below, report its Inhibition (%) value.
Test system: glucosyltransferase
Experiment: Inhibition of water-insoluble glucan formation by crude glucosyltransferase (14C-sucrose, scintillation counting)
Assay type: biochemical, Streptococcus mutans OMZ 176
Settings: Water-insoluble glucan formation vs control; sample concentration 1.0 mM; 60 minutes at 37°C, pH 6.8
Answers are plain numbers, in %.

Previously resolved entries follow.
>>> data_value("O=C(O[C@@H]1Cc2c(O)cc(O)cc2O[C@@H]1c1cc(O)c(=O)c2c(O)c(O)cc([C@H]3Oc4cc(O)cc(O)c4C[C@H]3OC(=O)c3cc(O)c(O)c(O)c3)c2c1)c1cc(O)c(O)c(O)c1 [Theaflavin digallate]")
56
>>> data_value("Oc1cc(O)c2c(c1)O[C@H](c1cc(O)c(O)c(O)c1)[C@@H](O)C2 [(+)-Gallocatechin]")
15
>>> data_value("O=c1c(O)cc([C@H]2Oc3cc(O)cc(O)c3C[C@H]2O)cc2c([C@H]3Oc4cc(O)cc(O)c4C[C@H]3O)cc(O)c(O)c12 [Free theaflavin]")
57
>>> data_value("O=C(O[C@@H]1Cc2c(O)cc(O)cc2O[C@@H]1c1cc(O)c(O)c2c(=O)c(O)cc([C@H]3Oc4cc(O)cc(O)c4C[C@H]3O)cc12)c1cc(O)c(O)c(O)c1 [Theaflavin monogallate B]")
47
>>> data_value("O=C(O[C@@H]1Cc2c(O)cc(O)cc2O[C@@H]1c1cc(=O)c(O)c2c(O)c(O)cc([C@H]3Oc4cc(O)cc(O)c4C[C@H]3O)c2c1)c1cc(O)c(O)c(O)c1 [Theaflavin monogallate A]")
64
>>> data_value("Oc1cc(O)c2c(c1)O[C@H](c1ccc(O)c(O)c1)[C@@H](O)C2 [(+)-Catechin]")
22

The following compounds each have a reported value; give each one's Inhibition (%).
1. Oc1cc(O)c2c(c1)O[C@@H](c1ccc(O)c(O)c1)[C@@H](O)C2 [(+)-Epicatechin]
2. O=C(O[C@@H]1Cc2c(O)cc(O)cc2O[C@H]1c1cc(O)c(O)c(O)c1)c1cc(O)c(O)c(O)c1 [(-)-Gallocatechin gallate]

OUT:
1: 12; 2: 47

Source listed as patent EP0415126B1.
